biological target: human recombinant LRRK2 protein (Homo sapiens (Human), UniProt Q5S007); experiment: LRRK2 Kinase Activity Assay (ADP-Glo); conditions: LRRK2 wt; LRRKtide peptide and ATP substrates; 1h-incubation at 37° C.
Sequence (Q5S007 whole entry): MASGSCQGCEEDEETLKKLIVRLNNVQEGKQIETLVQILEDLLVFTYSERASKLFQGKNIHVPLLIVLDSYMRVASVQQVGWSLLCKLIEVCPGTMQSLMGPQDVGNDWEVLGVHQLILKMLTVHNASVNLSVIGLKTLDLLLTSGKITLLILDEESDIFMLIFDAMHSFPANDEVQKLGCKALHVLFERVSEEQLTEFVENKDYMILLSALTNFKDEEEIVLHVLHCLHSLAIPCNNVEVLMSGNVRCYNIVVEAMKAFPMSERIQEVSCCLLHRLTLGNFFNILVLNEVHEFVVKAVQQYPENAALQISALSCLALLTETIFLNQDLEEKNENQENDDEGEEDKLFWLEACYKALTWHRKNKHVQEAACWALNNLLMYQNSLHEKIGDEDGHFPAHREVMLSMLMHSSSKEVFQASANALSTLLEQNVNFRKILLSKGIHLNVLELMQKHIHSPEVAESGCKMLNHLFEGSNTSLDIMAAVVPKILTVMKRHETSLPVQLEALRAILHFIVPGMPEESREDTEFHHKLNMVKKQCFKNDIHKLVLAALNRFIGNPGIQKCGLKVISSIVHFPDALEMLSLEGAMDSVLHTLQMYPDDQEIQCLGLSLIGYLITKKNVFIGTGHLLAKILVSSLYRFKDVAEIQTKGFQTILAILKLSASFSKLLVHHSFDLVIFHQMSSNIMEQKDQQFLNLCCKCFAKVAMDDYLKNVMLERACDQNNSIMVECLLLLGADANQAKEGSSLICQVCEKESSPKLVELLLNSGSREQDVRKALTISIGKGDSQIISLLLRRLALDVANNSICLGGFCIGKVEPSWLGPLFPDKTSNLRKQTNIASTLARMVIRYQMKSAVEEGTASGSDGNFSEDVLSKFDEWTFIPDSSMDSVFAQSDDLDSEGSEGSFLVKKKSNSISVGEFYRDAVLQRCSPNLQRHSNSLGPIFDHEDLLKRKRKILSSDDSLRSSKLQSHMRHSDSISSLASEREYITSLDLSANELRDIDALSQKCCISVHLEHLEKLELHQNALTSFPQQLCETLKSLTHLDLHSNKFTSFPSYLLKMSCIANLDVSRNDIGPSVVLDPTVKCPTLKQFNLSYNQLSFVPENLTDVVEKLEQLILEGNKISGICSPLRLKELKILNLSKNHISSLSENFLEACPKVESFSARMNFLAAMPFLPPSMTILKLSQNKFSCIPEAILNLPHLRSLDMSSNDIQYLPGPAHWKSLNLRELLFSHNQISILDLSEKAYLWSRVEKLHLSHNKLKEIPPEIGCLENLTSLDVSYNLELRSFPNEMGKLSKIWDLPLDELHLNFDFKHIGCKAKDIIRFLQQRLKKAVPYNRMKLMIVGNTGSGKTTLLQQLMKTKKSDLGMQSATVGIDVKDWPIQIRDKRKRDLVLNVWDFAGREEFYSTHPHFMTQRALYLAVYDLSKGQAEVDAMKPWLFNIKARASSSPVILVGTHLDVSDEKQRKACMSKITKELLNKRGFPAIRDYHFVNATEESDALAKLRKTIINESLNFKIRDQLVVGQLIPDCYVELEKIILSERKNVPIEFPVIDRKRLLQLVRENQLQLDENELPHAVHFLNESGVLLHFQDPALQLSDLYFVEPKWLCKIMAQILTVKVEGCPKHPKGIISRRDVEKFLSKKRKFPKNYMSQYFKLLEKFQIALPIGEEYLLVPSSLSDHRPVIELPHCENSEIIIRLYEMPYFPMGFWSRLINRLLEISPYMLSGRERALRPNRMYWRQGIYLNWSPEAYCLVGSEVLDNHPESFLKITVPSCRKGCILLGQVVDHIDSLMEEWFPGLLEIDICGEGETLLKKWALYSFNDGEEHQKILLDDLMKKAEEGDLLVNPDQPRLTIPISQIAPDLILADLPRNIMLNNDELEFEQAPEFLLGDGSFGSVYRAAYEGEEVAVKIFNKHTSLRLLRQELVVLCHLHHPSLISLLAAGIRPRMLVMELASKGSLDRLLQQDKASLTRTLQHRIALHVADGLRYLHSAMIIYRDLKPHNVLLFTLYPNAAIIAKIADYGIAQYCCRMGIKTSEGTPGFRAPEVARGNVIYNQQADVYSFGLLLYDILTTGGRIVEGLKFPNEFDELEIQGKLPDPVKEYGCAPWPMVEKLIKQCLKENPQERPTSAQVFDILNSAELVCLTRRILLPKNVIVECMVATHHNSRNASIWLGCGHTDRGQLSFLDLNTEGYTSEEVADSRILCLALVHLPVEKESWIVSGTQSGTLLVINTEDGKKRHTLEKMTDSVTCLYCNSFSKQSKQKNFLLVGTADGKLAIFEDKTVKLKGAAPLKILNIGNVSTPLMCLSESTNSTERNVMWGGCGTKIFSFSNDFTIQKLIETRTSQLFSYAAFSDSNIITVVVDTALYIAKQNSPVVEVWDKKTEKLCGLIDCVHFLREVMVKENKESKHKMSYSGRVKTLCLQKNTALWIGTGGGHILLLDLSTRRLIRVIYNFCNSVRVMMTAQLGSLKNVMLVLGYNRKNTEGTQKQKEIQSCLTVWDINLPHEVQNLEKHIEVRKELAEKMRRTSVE
reportedProperty: IC50

Prompt: Input C[C@H]1OC(=O)NCCCOc2ccc3[nH]nc(c3c2)-c2cc(F)cc1c2 (single isomer, unassigned) [Example 108] , output reported IC50.
Completion: 10 to 100 nM

Prompt: Input CCN(CC)c1cc2cc(c1)-c1n[nH]c3ccc(cc13)OCCCNC(=O)OC2 [Example 47] , output reported IC50.
Completion: < 10 nM

Prompt: Input CC1CCNC(=O)OCc2cc(F)cc(c2)-c2n[nH]c3ccc(cc23)O1 (centres unmarked) [Example 71] , output reported IC50.
Completion: < 10 nM

Prompt: Input COC1CN(c2cc3cc(c2)-c2n[nH]c4ccc(cc24)OCCCNC(=O)OC3)C1 [Example 32] , output reported IC50.
Completion: < 10 nM

Prompt: Input CC1OC(=O)NCCCOc2ccc3[nH]nc(c3c2)-c2cccc1n2 (centres unmarked) [Example 111] , output reported IC50.
Completion: 10 to 100 nM

Prompt: Input CN1CCN(c2ccc3cc2COC(=O)NCCCOc2ccc4[nH]nc-3c4c2)CC1 [Example 49] , output reported IC50.
Completion: 10 to 100 nM

Prompt: Input Cn1nc2cc1CCOC(=O)NCCCOc1ccc3[nH]nc-2c3c1 [Example 145] , output reported IC50.
Completion: 100 to 1000 nM

Prompt: Input CN1CCCOc2ccc3[nH]nc(c3c2)-c2cncc(c2)COC1=O [Example 2] , output reported IC50.
Completion: 10 to 100 nM

Prompt: Input CN1CCN(Cc2cc3cc(c2)-c2n[nH]c4ccc(cc24)OCCCNC(=O)OC3)CC1 [Example 44] , output reported IC50.
Completion: < 10 nM

Prompt: Input O=C1NC[C@H](F)COc2ccc3[nH]nc(c3c2)-c2cccc(c2)CO1 [Example 169] , output reported IC50.
Completion: < 10 nM

Prompt: Input C[C@@H]1CCNC(=O)OCc2nc(cc(N3CCCC3)n2)-c2n[nH]c3ccc(cc23)O1 [Example 129] , output reported IC50.
Completion: < 10 nM

Prompt: Input CC1COC(=O)NCCCOc2ccc3[nH]nc(c3c2)-c2cnn1c2 (centres unmarked) [Example 110] , output reported IC50.
Completion: < 10 nM

Prompt: Input C[C@@H]1CCNC(=O)OCc2nc(cn2C)-c2n[nH]c3ccc(cc23)O1 [Example 158] , output reported IC50.
Completion: 10 to 100 nM

Prompt: Input C[C@@H]1CCNC(=O)OCc2cc(c[nH]c2=O)-c2n[nH]c3ccc(cc23)O1 [Example 144] , output reported IC50.
Completion: < 10 nM

Prompt: Input O=C1NCCCOc2ccc3[nH]nc(c3c2)-c2cc(cc(N3CCN(C4COC4)CC3)c2)CO1 [Example 15] , output reported IC50.
Completion: < 10 nM

Prompt: Input O=C1NCCCOc2ccc3[nH]nc(c3c2)-c2cc(cc(C3=CCOC3)c2)CO1 [Example 37] , output reported IC50.
Completion: < 10 nM

Prompt: Input O=C1NCCCOc2ccc3[nH]nc(c3c2)-c2ccnc(c2)CO1 [Example 7] , output reported IC50.
Completion: < 10 nM

----------
target: human recombinant LRRK2 protein (Homo sapiens (Human)); assay: LRRK2 Kinase Activity Assay (ADP-Glo); details: LRRK2 wt; LRRKtide peptide and ATP substrates; 1h-incubation at 37° C.
Please respond with reported IC50 for every item in the list.

Prompt: Input CC(C)Oc1cc2cc(c1)-c1n[nH]c3ccc(cc13)OCCCNC(=O)OC2 , output reported IC50.
Completion: < 10 nM

Prompt: Input CN(c1cc2cc(c1)-c1n[nH]c3ccc(cc13)OCCCNC(=O)OC2)C1COC1 , output reported IC50.
Completion: < 10 nM

Prompt: Input Cc1cc2cc(c1)-c1n[nH]c3ccc(cc13)OCCCNC(=O)OC2 , output reported IC50.
Completion: < 10 nM

Prompt: Input O=C1NCC(F)(F)COc2ccc3[nH]nc(c3c2)-c2cccc(c2)CO1 , output reported IC50.
Completion: < 10 nM

Prompt: Input O=C1NCCOc2ccc3[nH]nc(c3c2)-c2cnn(c2)CCCO1 , output reported IC50.
Completion: 100 to 1000 nM

----------
Please respond with reported pIC50 for every item in the list.
biological target: human recombinant LRRK2 protein (Homo sapiens (Human)); experiment: LRRK2 Kinase Activity Assay (ADP-Glo); details: LRRK2 wt; LRRKtide peptide and ATP substrates; 1h-incubation at 37° C.
pIC50: −log10 of the molar value.

Prompt: Input CC(C)C1COC(=O)NCCCOc2ccc3[nH]nc(c3c2)-c2cnn1c2 (stereo not shown) [Example 112] , output reported pIC50.
Completion: 7.00 to 8.00

Prompt: Input CN1CCN(c2cc3cc(c2)-c2n[nH]c4ccc(cc24)OCCCNC(=O)OC3)CC1 [Example 31] , output reported pIC50.
Completion: > 8.00

Prompt: Input O=C1NCCCOc2ccc3[nH]nc(c3c2)-c2cc(cc(N3CCC(N4CCCC4)CC3)c2)CO1 [Example 34] , output reported pIC50.
Completion: > 8.00

Prompt: Input C[C@@H]1CCNC(=O)OCc2cncc(c2)-c2n[nH]c3cc(F)c(cc23)O1 [Example 124] , output reported pIC50.
Completion: > 8.00

----------
target: human recombinant LRRK2 protein (Homo sapiens (Human), UniProt Q5S007); experiment: LRRK2 Kinase Activity Assay (ADP-Glo); conditions: LRRK2 wt; LRRKtide peptide and ATP substrates; 1h-incubation at 37° C.
Please respond with reported IC50 for every item in the list.

Prompt: // output IC50; input CC1CCNC(=O)OCc2cc(F)cc(c2)-c2n[nH]c3ccc(cc23)O1 (single isomer, unassigned) [Example 100] ; system human recombinant LRRK2 protein (Homo sapiens (Human), UniProt Q5S007)
Completion: < 10 nM

Prompt: // output IC50; input COc1cc2nc(c1)-c1n[nH]c3ccc(cc13)O[C@H](C)CCNC(=O)OC2 ; system human recombinant LRRK2 protein (Homo sapiens (Human), UniProt Q5S007)
Completion: < 10 nM

Prompt: // output IC50; input C[C@@H]1CCNC(=O)OCc2cc(Cl)cc(n2)-c2n[nH]c3ccc(cc23)O1 ; system human recombinant LRRK2 protein (Homo sapiens (Human), UniProt Q5S007)
Completion: < 10 nM

Prompt: // output IC50; input O=C1OC2CN1CCCOc1ccc3[nH]nc(c3c1)-c1cccc2c1 (stereo not shown) ; system human recombinant LRRK2 protein (Homo sapiens (Human), UniProt Q5S007)
Completion: < 10 nM

Prompt: // output IC50; input CC1CCNC(=O)OCc2cccc(c2)-c2n[nH]c3ccc(cc23)O1 (stereo not shown) ; system human recombinant LRRK2 protein (Homo sapiens (Human), UniProt Q5S007)
Completion: < 10 nM

Prompt: // output IC50; input C[C@@H]1CCNC(=O)OCc2cccc(c2)-c2n[nH]c3ncc(cc23)O1 ; system human recombinant LRRK2 protein (Homo sapiens (Human), UniProt Q5S007)
Completion: < 10 nM

Prompt: // output IC50; input CCC1CC2=NN1CCOC(=O)NCCCOc1ccc3[nH]nc2c3c1 (stereo not shown) ; system human recombinant LRRK2 protein (Homo sapiens (Human), UniProt Q5S007)
Completion: 10 to 100 nM

Prompt: // output IC50; input CC1OC(=O)NCCCOc2ccc3[nH]nc(c3c2)-c2cccc1c2 (stereo not shown) ; system human recombinant LRRK2 protein (Homo sapiens (Human), UniProt Q5S007)
Completion: < 10 nM

Prompt: // output IC50; input C[C@@H]1CCNC(=O)O[C@H](C)c2cncc(n2)-c2n[nH]c3ccc(cc23)O1 ; system human recombinant LRRK2 protein (Homo sapiens (Human), UniProt Q5S007)
Completion: < 10 nM

Prompt: // output IC50; input O=C1NCC(F)(F)COc2ccc3[nH]nc(c3c2)-c2cnn(n2)CCO1 ; system human recombinant LRRK2 protein (Homo sapiens (Human), UniProt Q5S007)
Completion: < 10 nM

Prompt: // output IC50; input CC1OC(=O)NCCCOc2ccc3[nH]nc(c3c2)-c2cc(F)cc1c2 (stereo not shown) ; system human recombinant LRRK2 protein (Homo sapiens (Human), UniProt Q5S007)
Completion: < 10 nM

Prompt: // output IC50; input O=C1NC[C@@H](F)COc2ccc3[nH]nc(c3c2)-c2cnn(n2)CCO1 ; system human recombinant LRRK2 protein (Homo sapiens (Human), UniProt Q5S007)
Completion: < 10 nM

Prompt: // output IC50; input O=C1NCCCOc2ccc3[nH]nc(c3c2)-c2cc(cc(N3CC[C@H](O)C3)c2)CO1 ; system human recombinant LRRK2 protein (Homo sapiens (Human), UniProt Q5S007)
Completion: < 10 nM

Prompt: // output IC50; input O=C1NCCCOc2ccc3[nH]nc(c3c2)-c2cc(cc(N3CCC(N4CCOCC4)CC3)c2)CO1 ; system human recombinant LRRK2 protein (Homo sapiens (Human), UniProt Q5S007)
Completion: < 10 nM

Prompt: // output IC50; input C[C@@H]1CCNC(=O)OCc2cccc(c2F)-c2n[nH]c3ccc(cc23)O1 ; system human recombinant LRRK2 protein (Homo sapiens (Human), UniProt Q5S007)
Completion: 100 to 1000 nM

Prompt: // output IC50; input CC1Cn2cc(cn2)-c2n[nH]c3ccc(cc23)O[C@H](C)CCNC(=O)O1 (stereo partly shown) ; system human recombinant LRRK2 protein (Homo sapiens (Human), UniProt Q5S007)
Completion: < 10 nM

Prompt: // output IC50; input Cn1ccc(-c2cc3cc(c2)-c2n[nH]c4ccc(cc24)OCCCNC(=O)OC3)n1 ; system human recombinant LRRK2 protein (Homo sapiens (Human), UniProt Q5S007)
Completion: < 10 nM

Prompt: // output IC50; input O=C1NCCCOc2ccc3[nH]nc(c3c2)-c2ccc(N3CCCC3=O)c(c2)CO1 ; system human recombinant LRRK2 protein (Homo sapiens (Human), UniProt Q5S007)
Completion: < 10 nM

Prompt: // output IC50; input O=C1NCCCOc2ccc3[nH]nc(c3c2)-c2csc(n2)CO1 ; system human recombinant LRRK2 protein (Homo sapiens (Human), UniProt Q5S007)
Completion: < 10 nM

Prompt: // output IC50; input O=C1NCCCOc2ccc3[nH]nc(c3c2)-c2cc(cc(N3CCNCC3)c2)CO1 ; system human recombinant LRRK2 protein (Homo sapiens (Human), UniProt Q5S007)
Completion: < 10 nM

Prompt: // output IC50; input O=C1NCCCOc2ccc3[nH]nc(c3c2)-c2cc(cc(N3CC[C@@H](O)C3)c2)CO1 ; system human recombinant LRRK2 protein (Homo sapiens (Human), UniProt Q5S007)
Completion: < 10 nM

Prompt: // output IC50; input O=C1NCCCOc2ccc3[nH]nc(c3c2)-c2cc(cc(CN3CCCC3)c2)CO1 ; system human recombinant LRRK2 protein (Homo sapiens (Human), UniProt Q5S007)
Completion: < 10 nM

Prompt: // output IC50; input COCCN(C)c1cc2cc(c1)-c1n[nH]c3ccc(cc13)OCCCNC(=O)OC2 ; system human recombinant LRRK2 protein (Homo sapiens (Human), UniProt Q5S007)
Completion: < 10 nM

Prompt: // output IC50; input O=C1NCCCOc2ccc3[nH]nc(c3c2)-c2cnn(c2)C(C2CC2)CO1 (stereo not shown) ; system human recombinant LRRK2 protein (Homo sapiens (Human), UniProt Q5S007)
Completion: < 10 nM

Prompt: // output IC50; input O=C1NCCCNc2ccc3[nH]nc(c3c2)-c2cccc(c2)CO1 ; system human recombinant LRRK2 protein (Homo sapiens (Human), UniProt Q5S007)
Completion: 100 to 1000 nM

Prompt: // output IC50; input O=C1NCCC2(CC2)Oc2ccc3[nH]nc(c3c2)-c2cccc(c2)CO1 ; system human recombinant LRRK2 protein (Homo sapiens (Human), UniProt Q5S007)
Completion: < 10 nM

Prompt: // output IC50; input Cc1c(F)cc2cc1COC(=O)NCCCOc1ccc3[nH]nc-2c3c1 ; system human recombinant LRRK2 protein (Homo sapiens (Human), UniProt Q5S007)
Completion: < 10 nM

Prompt: // output IC50; input C[C@@H]1CCNC(=O)O[C@H](C)c2cc(F)cc(c2)-c2n[nH]c3ccc(cc23)O1 ; system human recombinant LRRK2 protein (Homo sapiens (Human), UniProt Q5S007)
Completion: < 10 nM

Prompt: // output IC50; input O=C1NCCCOc2ccc3[nH]nc(c3c2)-c2cncc(c2)CO1 ; system human recombinant LRRK2 protein (Homo sapiens (Human), UniProt Q5S007)
Completion: < 10 nM

Prompt: // output IC50; input C[C@@H]1CCNC(=O)OCCn2cc(cc2C#N)-c2n[nH]c3ccc(cc23)O1 ; system human recombinant LRRK2 protein (Homo sapiens (Human), UniProt Q5S007)
Completion: < 10 nM

Prompt: // output IC50; input O=C1NCCCOc2ccc3[nH]nc(c3c2)-c2cc(no2)CCCO1 ; system human recombinant LRRK2 protein (Homo sapiens (Human), UniProt Q5S007)
Completion: < 10 nM

Prompt: // output IC50; input C[C@@H]1CN(c2cc3cc(c2)-c2n[nH]c4ccc(cc24)OCCCNC(=O)OC3)C[C@H](C)O1 ; system human recombinant LRRK2 protein (Homo sapiens (Human), UniProt Q5S007)
Completion: < 10 nM

Prompt: // output IC50; input COCCc1cc2cc(c1)-c1n[nH]c3ccc(cc13)OCCCNC(=O)OC2 ; system human recombinant LRRK2 protein (Homo sapiens (Human), UniProt Q5S007)
Completion: < 10 nM

Prompt: // output IC50; input C[C@@H]1CCNC(=O)OCc2cc(ccn2)-c2n[nH]c3ccc(cc23)O1 ; system human recombinant LRRK2 protein (Homo sapiens (Human), UniProt Q5S007)
Completion: < 10 nM
